tested on: blackgrass (Alopecurus myosuroides); test: Test A postemergence application, visual injury rating 0-100; type: in vivo; conditions: 31 g ai/ha, postemergence, 10 days, 0 = no effect, 100 = complete control
MEASURE NAME: Blackgrass plant response rating (0-100)

Exam item: blackgrass (Alopecurus myosuroides) / Blackgrass plant response rating (0-100) / CC1(C(=O)NC2C=CC(C(=O)OCC(F)(F)F)C2)CN(c2cc(F)cc(F)c2)C(=O)O1 (stereo not shown) : value?
Marked response: 50

Exam item: blackgrass (Alopecurus myosuroides) / Blackgrass plant response rating (0-100) / COC(=O)C1CCC(NC(=O)C2(C)CN(c3cc(F)cc(F)c3)C(=O)O2)C1 (stereo not shown) : value?
Marked response: 50

Exam item: blackgrass (Alopecurus myosuroides) / Blackgrass plant response rating (0-100) / CC1(C(=O)NC2CC=C(C(=O)OCC(F)(F)F)C2)CN(c2cc(F)cc(F)c2)C(=O)O1 (stereo not shown) : value?
Marked response: 90

Exam item: blackgrass (Alopecurus myosuroides) / Blackgrass plant response rating (0-100) / CC(C)COC(=O)C1=CCC(NC(=O)C2(C)CN(c3cc(F)cc(F)c3)C(=O)O2)C1 (stereo not shown) : value?
Marked response: 90
